- System: COLO 205 colon
- test_name: NCI tumour cell line growth inhibition, 48 h
For each of the molecules below, state its TGI.
Express it in µM; write the number only.

Lookup: Could you tell me which TGI is on file for CCCC(CCC)NCC(O)c1cc(-c2ccc(C(F)(F)F)cc2)nc(C(F)(F)F)c1 (stereo not given) ?
Found: 3.63

Lookup: Quick one: TGI of COc1cc2ncnc(-n3ncc4cc(NC(=O)Nc5ccccc5)ccc43)c2cc1OC ?
Found: 4.53

Lookup: Fill in the blank: the reported TGI of Cc1cc2nc(C=C(C(F)(F)F)C(F)(F)F)oc2cc1C is ____.
Found: 0.392

Lookup: Please give the measured TGI for this molecule: CCN(CC)C1CC(O[C@H]2C[C@](O)(C(=O)CO)Cc3c(O)c4c(c(O)c32)C(=O)c2c(OC)cccc2C4=O)OC(C)C1O (stereo not given in full)
Found: 0.193

Lookup: Name the reported TGI value associated with the molecule CC(C)c1c(O)c(O)c2c(c1O)C(=O)C(O)=C1C(C)(C)CCC[C@@]12C
Found: 3.6

Lookup: Requested read-out: TGI. Entry: CCOC(=O)c1cn2c(n1)sc1cc(Cl)ccc12
Found: 60.8

Lookup: Requested read-out: TGI. Entry: COC(=O)Nc1nc2ccc(C3(c4ccc(F)cc4)OCCO3)cc2[nH]1
Found: 2.88

Lookup: Please look up its TGI: Nc1nc(Nc2cccnc2)sc1C(=O)c1ccccc1F
Found: 4.68

Lookup: Please look up its TGI: CC1(C)C(=O)/C(=C\c2cccnc2)C[C@]2(C)[C@H]3CC[C@@H]4[C@H]5[C@H](C(=O)/C=C/c6cccnc6)CC[C@]5(C(=O)O)CC[C@@]4(C)[C@]3(C)CC[C@@H]12
Found: 5.17

Lookup: Any idea what TGI was measured for N#Cc1cc(-c2cc3ccccc3o2)oc1N ?
Found: 4.74
